# Tested on: WPMY1-TP53BP1-CLTA
# method.notes: phenotypically active (imaging signature differs from DMSO and reproducible) at any of 0.3-9 uM (binary (1 = active, 0 = inactive)); higher = active
# condition.summary: treatment time: 24 h
Items are presented alongside their recorded phenotypically active.

{"columns": ["compound", "phenotypically active"],
 "data": [
  ["CC[C@H]1CN2CCc3cc(OC)c(OC)cc3[C@@H]2C[C@@H]1C[C@H]1NCCc2cc(OC)c(OC)cc21", 1],
  ["CCN1C[C@]2(COC)CC[C@H](O)[C@]34[C@@H]5C[C@H]6[C@H](OC)[C@@H]5[C@](O)(C[C@@H]6OC)[C@](O)([C@H]13)[C@@H](OC)[C@H]24", 0],
  ["NC(=S)N/N=C/c1coc2ccccc2c1=O", 0],
  ["CC(C)[N+](C)(CCC(C(N)=O)(c1ccccc1)c1ccccc1)C(C)C [isopropamide-iodide]", 0],
  ["C=C(C)[C@H]1CN[C@H](C(=O)O)[C@H]1CC(=O)O", 0],
  ["CCCCCC[C@H]1C(=O)O[C@H](C)[C@H](NC(=O)c2cccc(NC=O)c2O)C(=O)O[C@@H](C)[C@@H]1OC(=O)CC(C)C [antimycin a]", 1],
  ["N#Cc1c(Oc2cccc(OS(=O)(=O)CCCC(F)(F)F)c2)cccc1C(F)(F)F", 0],
  ["C[C@@H](N)[C@@H](O)c1ccccc1", 0]
]}
